Across several studies, compounds have been characterized by their IC50 on 5-hydroxytryptamine receptor 1A (Rattus norvegicus, UniProt P19327); a selection follows.
Sequence (P19327 whole entry): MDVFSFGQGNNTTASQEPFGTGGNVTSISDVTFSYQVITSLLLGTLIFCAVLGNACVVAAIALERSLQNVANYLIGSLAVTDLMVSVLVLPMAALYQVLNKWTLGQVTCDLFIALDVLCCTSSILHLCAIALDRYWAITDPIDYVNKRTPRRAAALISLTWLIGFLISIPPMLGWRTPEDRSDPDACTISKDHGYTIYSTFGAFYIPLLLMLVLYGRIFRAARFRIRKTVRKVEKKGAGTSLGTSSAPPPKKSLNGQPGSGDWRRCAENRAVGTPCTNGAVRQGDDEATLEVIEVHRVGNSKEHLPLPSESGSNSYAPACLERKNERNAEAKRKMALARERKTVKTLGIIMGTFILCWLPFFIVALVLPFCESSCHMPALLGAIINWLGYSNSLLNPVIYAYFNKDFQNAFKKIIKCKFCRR
recorded_endpoint: IC50 (nM)

> print(dat)
                                   compound  value.unit  limit.operator  reported.measurement
1  N#Cc1ccc(CCN2CCC(NC(=O)C34CC5CC(CC(C5)C3)C4)C2)cc1 (stereo not given)          nM               >                  1000
2  O=c1ccc2cc(N3CCN(CCCCc4c[nH]c5ccc(F)cc45)CC3)ccc2o1          nM               =                   0.7
3  CC1(C)SCN(CCCCN2CCN(c3cn(-c4ccc(F)cc4)c4ccccc34)CC2)C1=O          nM               =                  2330
4  NC(=O)c1ccc2[nH]cc(CCCCN3CCN(c4ccc5c(c4)CCCO5)CC3)c2c1          nM               =                   0.5
5  COc1cccc(OCC(O)CN2CCN(CCC(=O)N3CCCSc4c3cnn(C)c4=O)CC2)c1 (stereo not given)          nM               =                   118
